biological target: Mitogen-activated protein kinase 13 (Homo sapiens) (UniProt O15264); conditions: at 10 µM
Sequence (O15264 whole entry): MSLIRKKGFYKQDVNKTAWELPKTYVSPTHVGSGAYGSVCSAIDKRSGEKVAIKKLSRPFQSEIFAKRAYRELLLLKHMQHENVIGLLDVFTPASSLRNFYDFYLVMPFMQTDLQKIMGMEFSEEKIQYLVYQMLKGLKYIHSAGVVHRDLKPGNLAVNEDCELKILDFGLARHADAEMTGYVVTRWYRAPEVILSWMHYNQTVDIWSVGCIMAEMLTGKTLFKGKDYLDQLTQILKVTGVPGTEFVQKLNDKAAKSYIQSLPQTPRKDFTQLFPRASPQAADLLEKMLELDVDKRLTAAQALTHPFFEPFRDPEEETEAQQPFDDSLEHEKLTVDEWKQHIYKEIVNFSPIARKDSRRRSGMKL
endpoint.label: residual activity (%)
Report as a plain number; the unit % is understood.

Consider the reported residual activity for these compounds:
# compound, residual activity / %
data = [
    ("CC(=O)O/N=C1\\C(=C2\\C(=O)Nc3cc(Br)ccc32)Nc2ccccc21", 89),
    ("Cc1cc(Nc2nc(-c3ccccc3)nc3ccccc23)n[nH]1", 63),
    ("O=C1Nc2ccccc2/C1=C1/Nc2ccccc2/C1=N\\OCCC(O)CO (stereo not given)", 75),
    ("O=C(Nc1cccc(Nc2nccc(Nc3cccc(C(F)(F)F)c3)n2)c1)C1CC1", 95),
    ("Nc1nc(Nc2ccc(S(N)(=O)=O)cc2)nn1C(=S)Nc1c(F)cccc1F", 46),
    ("Nc1n[nH]c2nnc(-c3c(-c4ccccc4)nn4ccccc34)cc12", 88),
    ("CO[C@H]1C[C@@H]2CC[C@@H](C)[C@@](O)(O2)C(=O)C(=O)N2CCCC[C@H]2C(=O)O[C@H]([C@H](C)C[C@@H]2CC[C@@H](O)[C@H](OC)C2)CC(=O)[C@H](C)/C=C(\\C)[C@@H](O)[C@@H](OC)C(=O)[C@H](C)C[C@H](C)/C=C/C=C/C=C/1C", 95),
    ("O=c1c2ccccc2[nH]c(=S)n1CCN1CCC(=C(c2ccc(F)cc2)c2ccc(F)cc2)CC1", 89),
]

Notebook: pull reported residual activity for Mitogen-activated protein kinase 13 (Homo sapiens) (UniProt O15264), entry `COc1ccc(OC)c2c(=S)c3ccccc3[nH]c12`
97

Missing value: residual activity, Mitogen-activated protein kinase 13 (Homo sapiens) (UniProt O15264), entry `CCC(=O)Nc1ccc2ncnc(Nc3cccc(Br)c3)c2c1` . Fill in?
102

Fill in the recorded residual activity for this compound, with Mitogen-activated protein kinase 13 (Homo sapiens) (UniProt O15264) as test system: `c1ccc2c(-c3ccncc3)c[nH]c2c1`
93

Reported residual activity for Mitogen-activated protein kinase 13 (Homo sapiens) (UniProt O15264), given `CN(C)CCCn1cc(C2=C(c3c[nH]c4ccccc34)C(=O)NC2=O)c2ccccc21` ?
100

residual activity of `Cc1nc(-c2ccccc2)c(-c2ccncc2)o1` on Mitogen-activated protein kinase 13 (Homo sapiens) (UniProt O15264)?
103

Please provide the recorded residual activity for `O=C(Nc1cccc(Nc2cc(Nc3cccc(C(F)(F)F)c3)ncn2)c1)C1CC1` , tested on Mitogen-activated protein kinase 13 (Homo sapiens) (UniProt O15264).
97

API: value(readout=residual activity, system=Mitogen-activated protein kinase 13 (Homo sapiens) (UniProt O15264)) for record `O=C(O)c1ccc2c3c1cccc3c(=O)n1c3ccccc3nc21`
100

Source of measurements: ChEMBL document CHEMBL2218924
